Test system: rodent lifetime carcinogenesis bioassay, tumor incidence TD50
Test: carcinogenic potency in animals, long-term in vivo studies, CPDB compilation (AID 1745844)
Details: rat; strain F344/DuCrj; females; in feed; site: clitoral gland; lesion: squamous-cell carcinoma; dosed 72 weeks; study length 72 weeks
MEASUREMENT TYPE: TD50

Data request, read-out TD50, for `Cn1c(N)nc2c3cccnc3ccc21`
7.11 mg/kg/day

###

System: rodent lifetime carcinogenesis bioassay, tumor incidence TD50
Assay: carcinogenic potency in animals, long-term in vivo studies, CPDB compilation (AID 1745844)
Conditions: mouse; strain B6C3F1; males; by gavage; site: lung; lesion: alveolar/bronchiolar carcinoma; dosed 52 weeks; study length 81 weeks
MEASUREMENT TYPE: TD50

Data request, read-out TD50, for `C[C@]12CC[C@@H]3c4ccc(OC(=O)Cc5ccc(N(CCCl)CCCl)cc5)cc4CC[C@H]3[C@@H]1CC[C@@H]2OC(=O)Cc1ccc(N(CCCl)CCCl)cc1`
3.61 mg/kg/day

###

System: rodent lifetime carcinogenesis bioassay, tumor incidence TD50
Test: carcinogenic potency in animals, long-term in vivo studies, CPDB compilation (AID 1745844)
Details: mouse; strain B6C3F1; males; by gavage; site: lung; lesion: alveolar/bronchiolar adenoma + alveolar/bronchiolar carcinoma; dosed 64 weeks; study length 81 weeks
MEASUREMENT TYPE: TD50 (mg/kg/day)
Express your answer in mg/kg/day, writing the number without its unit.

Data request, read-out TD50, for `CC(C)CCC[C@@H](C)[C@H]1CC[C@H]2[C@@H]3CC=C4C[C@@H](OC(=O)Cc5ccc(N(CCCl)CCCl)cc5)CC[C@]4(C)[C@H]3CC[C@]12C`
1.19

###

System: rodent lifetime carcinogenesis bioassay, tumor incidence TD50
Experiment: carcinogenic potency in animals, long-term in vivo studies, CPDB compilation (AID 1745844)
Conditions: rat; strain Sprague-Dawley; females; inhaled; site: liver; lesion: angioma; dosed 52 weeks; study length 139 weeks
MEASUREMENT TYPE: TD50

Data request, read-out TD50, for `C=CCl`
378 mg/kg/day

###

Test system: rodent lifetime carcinogenesis bioassay, tumor incidence TD50
Experiment: carcinogenic potency in animals, long-term in vivo studies, CPDB compilation (AID 1745844)
Conditions: mouse; strain B6C3F1; males; inhaled; site: all sites; lesion: hemangioma + hemangiosarcoma; dosed 26 weeks; study length 104 weeks
MEASUREMENT TYPE: TD50 (mg/kg/day)
Express your answer in mg/kg/day, writing the number without its unit.

What value of TD50 on rodent lifetime carcinogenesis bioassay, tumor incidence TD50 does `C=CC=C` have?
17.7

###

Tested on: rodent lifetime carcinogenesis bioassay, tumor incidence TD50
Assay: carcinogenic potency in animals, long-term in vivo studies, CPDB compilation (AID 1745844)
Conditions: mouse; strain A; males; by gavage; site: liver; lesion: carcinoma; dosed 79 weeks; study length 79 weeks
MEASUREMENT TYPE: TD50 (mg/kg/day)
Express your answer in mg/kg/day, writing the number without its unit.

Data request, read-out TD50, for `NNC(=O)c1ccncc1`
159

###

Test system: rodent lifetime carcinogenesis bioassay, tumor incidence TD50
Assay: carcinogenic potency in animals, long-term in vivo studies, CPDB compilation (AID 1745844)
Settings: rat; strain Fischer 344; females; by gavage; site: stomach; lesion: squamous-cell papilloma; dosed 104 weeks; study length 106 weeks
MEASUREMENT TYPE: TD50

Data request, read-out TD50, for `ClC=CCCl`
176 mg/kg/day
